# Test system: VZV
# assay-remarks: VZV antiviral assay (Table 2)
# Format: cell-based, varicella zoster virus
# condition-label: Human alphaherpesvirus 3
Entries and their measured IC50 follow.
Give just the numeric value; µg/mL need not be written.

Solved entries:
CC(NC(=S)Nc1ccc(-c2conc2-c2cccnc2)cc1)c1ccc(F)cc1 (stereo not shown) | 0.19
CC(NC(=S)Nc1ccc(-c2conc2-c2ccccc2O)cc1)c1ccc(F)cc1 (stereo not shown) | 1.9

QUERY: Consider the molecule CC(NC(=S)Nc1ccc(-c2nocc2-c2ccccc2F)cc1)c1ccc(F)cc1 (stereo not shown) and give its measured IC50.
RESULT: 5.4

QUERY: Consider the molecule CC(NC(=S)Nc1ccc(-c2conc2-c2ccc(N)cc2)cc1)c1ccc(F)cc1 (stereo not shown) and give its measured IC50.
RESULT: 0.05
